- Test system: Candida albicans
- Measurement Protocol: Antifungal activity against Candida albicans ATCC 76615 after 24 hrs by micro-broth dilution method
- Format: functional
- Experimental Parameters: ATCC 76615, 24 h
Reported Metric: MIC80 (µg/mL)
Please reply with the bare figure in µg/mL and do not write the unit itself.

Please report the recorded MIC80 for C[C@@H](c1ncncc1F)[C@](O)(Cn1cncn1)c1ccc(F)cc1F [VORICONAZOLE] .
0.0156

Input C=CCN(Cc1ccccc1Cl)CC(O)(Cn1cncn1)c1ccc(F)cc1F (centres undefined)
0.0156

Input C=CCN(Cc1ccc(Br)cc1)CC(O)(Cn1cncn1)c1ccc(F)cc1F (centres undefined)
0.0625

Input CN(C/C=C/C#CC(C)(C)C)Cc1cccc2ccccc12 [TERBINAFINE]
4

Input C=CCN(Cc1cccc(Cl)c1)CC(O)(Cn1cncn1)c1ccc(F)cc1F (centres undefined)
0.0156

Input C=CCN(Cc1ccc(CC)cc1)CC(O)(Cn1cncn1)c1ccc(F)cc1F (centres undefined)
0.25

Input C=CCN(Cc1ccccc1Br)CC(O)(Cn1cncn1)c1ccc(F)cc1F (centres undefined)
0.0625

Input CC(=O)N1CCN(c2ccc(OCC3COC(Cn4ccnc4)(c4ccc(Cl)cc4Cl)O3)cc2)CC1 (centres undefined) [KETOCONAZOLE]
0.0156

Input C=CCN(Cc1ccc(C(=O)Oc2ccc([N+](=O)[O-])cc2)cc1)CC(O)(Cn1cncn1)c1ccc(F)cc1F (centres undefined)
0.25
